System: HSV-1
RUN DESCRIPTION: HSV-1 assay: CPE inhibition in Vero cells, MTS dye uptake
Type: cell-based, herpes simplex virus-1
CONDITION NOTES: Human alphaherpesvirus 1, Vero, 120 h, read-out: IC50 (inhibitory concentration at which the compound provides 50% CPE reduction)
METRIC: IC50 (µM)
Numbers only, in µM.

query: Return reported IC50. Input compound: COc1ccc(/C=C/C(=O)c2ccc(O)cc2O)cc1OC [2′,4′-Dihydroxy-3,4-dimethoxychalcone]
result: 8.36
